Data origin, for the record: patent US12421276B2

- Tested on: Caco-2 cells
- ASSAY NOTES: Caco-2 permeability study with or without P-gp inhibitor GF120918
- MEASUREMENT CONDITIONS: (Papp A-B with inhibitor − without inhibitor)/Papp A-B with inhibitor
MEASUREMENT TYPE: Abs. Quotient
In your answer, state the number alone without any accompanying words.

The following compounds have reported results that may help.
compound="CCCCCC(=O)NC(Cc1ccc(OC(=O)CN2CCOCC2)cc1)C(=O)NC(C(=O)NCCCCCC(N)=O)C(C)CC (stereo not drawn)" assayed_target="Caco-2 cells" measurement_type="Abs. Quotient" reported_value=0.78
compound="CCCCCC(=O)NC(Cc1ccc(OC(=O)CN(C)C)cc1)C(=O)NC(C(=O)NCCCCCC(N)=O)C(C)CC (stereo not drawn)" assayed_target="Caco-2 cells" measurement_type="Abs. Quotient" reported_value=0.77
compound="CCCCCC(=O)NC(Cc1ccc(OC(=O)CN2CCN(C)CC2)cc1)C(=O)NC(C(=O)NCCCCCC(N)=O)C(C)CC (stereo not drawn)" assayed_target="Caco-2 cells" measurement_type="Abs. Quotient" reported_value=0.78

Query block: Please give the measured Abs. Quotient for this compound: CCCCCC(=O)NC(Cc1ccc(OC(=O)CN2CCCC2)cc1)C(=O)NC(C(=O)NCCCCCC(N)=O)C(C)CC (stereo not drawn)
Result block: 0.88

Query block: Please answer likewise for CCCCCC(=O)NC(Cc1ccc(OC(=O)NCCN(C)C)cc1)C(=O)NC(C(=O)NCCCCCC(N)=O)C(C)CC (stereo not drawn)
Result block: 0.50

* * *

- ASSAY NOTES: Metabolic stability in simulated gastric fluid (SGF), pH 1.2, with or without pepsin
- Type: in vitro ADME
- MEASUREMENT CONDITIONS: −Pepsin, 5 μM, 37° C., 120 min
Where a SMILES comes first, the peptide text is derived from it. [ ]: non-standard residue; d: D form. The star is where a group is joined. ξ: configuration not given here. pY = N[CH](Cc1ccc(OP(=O)(O)O)cc1)C(=O)O; ξpY = NC(Cc1ccc(OP(=O)(O)O)cc1)C(=O)O; Ile(3ξ) = CCC(C)[C@H](N)C(=O)O; Hexanoyl = CCCCCC(=O)*; Ahx = NCCCCCC(=O)O
Recorded SGF Stability (pH 1.2) 120 min for the following compounds
Unit % implied. Number only.

compound="CCCCCC(=O)NC(Cc1ccc(OP(=O)(O)O)cc1)C(=O)N[C@H](C(=O)NCCCCCC(N)=O)C(C)CC.N.N (some centres unmarked) [Compound A29] (Hexanoyl-[ξpY]-[Ile(3ξ)]-[Ahx]-NH2)" unit=% reported_value=129
compound="CCCCCC(=O)N1C(Cc2ccc(OP(=O)([O-])[O-])cc2)C(=O)N(C(C(=O)NCCCCCC(N)=O)C(C)CC)C12CCN(C)CC2.[Na+].[Na+] (centres unmarked) [Compound 2]" unit=% reported_value=78
compound="CCCCCC(=O)NC(Cc1ccc(OC(=O)N2CCN(C)CC2)cc1)C(=O)NC(C(=O)NCCCCCC(N)=O)C(C)CC (centres unmarked) [Compound A20]" unit=% reported_value=57
compound="CCCCCC(=O)NC(Cc1ccc(OP(=O)(OCCN(C)C)OCCN(C)C)cc1)C(=O)NC(C(=O)NCCCCCC(N)=O)C(C)CC (centres unmarked) [Compound A18]" unit=% reported_value=14

Read the next record carefully.
Query block: // returns reported SGF Stability (pH 1.2) 120 min for input CCCCCC(=O)NC(Cc1ccc(OP(=O)([O-])O)cc1)C(=O)NC(C(=O)NCCCCCC(N)=O)C(C)CC.[Na+] (centres unmarked) [Compound A30] (Hexanoyl-[pY]-Ile-[Ahx]-NH2; configuration not given here)
Result block: 98

* * *

Recorded SIF Stability (pH 6.8) 0 min for the following molecules
- ASSAY NOTES: Metabolic stability in simulated intestinal fluid (SIF), pH 6.8, with or without pancreatin
- Type: in vitro ADME
- MEASUREMENT CONDITIONS: +Pancreatin (1%), 5 μM, 37° C., 0 min
- Procedure: Metabolic Stability in SIF and SGF (Simulated Intestinal and Gastric Fluid) Buffer 3=SIF without enzyme Buffer 4=SIF with 1% pancreatin SIF was prepared freshly with 8.7 mM NaOH, 28.65 mM NaH2PO4, 105.85 mM NaCl, with a final pH of 6.8. SGF was prepared freshly with 34.2 mM NaCl, with a final pH of 1.2. […] Compounds were dissolved as 1.5 mM DMSO stocks. […] The extent of metabolism was calculated as the disappearance of the test compound, compared to the 0-min control reaction incubations. […]
Where a SMILES comes first, the peptide text is derived from it. [ ]: non-standard residue; d: D form. The star is where a group is joined. ξ: configuration not given here. pY = N[CH](Cc1ccc(OP(=O)(O)O)cc1)C(=O)O; ξpY = NC(Cc1ccc(OP(=O)(O)O)cc1)C(=O)O; Ile(3ξ) = CCC(C)[C@H](N)C(=O)O; Hexanoyl = CCCCCC(=O)*; Ahx = NCCCCCC(=O)O

Would you please look over these solved cases?
molecule="CCCCCC(=O)NC(Cc1ccc(OC(=O)NCCN(C)C)cc1)C(=O)NC(C(=O)NCCCCCC(N)=O)C(C)CC (stereo not drawn)" measurement_type="SIF Stability (pH 6.8) 0 min" reported_value=100%
molecule="CCCCCC(=O)NC(Cc1ccc(OP(=O)(O)O)cc1)C(=O)N[C@H](C(=O)NCCCCCC(N)=O)C(C)CC.N.N (stereo partly drawn) [Compound A29] (Hexanoyl-[ξpY]-[Ile(3ξ)]-[Ahx]-NH2)" measurement_type="SIF Stability (pH 6.8) 0 min" reported_value=100%

Query block: Report SIF Stability (pH 6.8) 0 min for CCCCCC(=O)N1C(Cc2ccc(OP(=O)([O-])[O-])cc2)C(=O)N(C(C(=O)NCCCCCC(N)=O)C(C)CC)C12CCN(C)CC2.[Na+].[Na+] (stereo not drawn) please.
Result block: 100%

Query block: Then what about the molecule CCCCCC(=O)NC(Cc1ccc(OC(=O)N2CCN(C)CC2)cc1)C(=O)NC(C(=O)NCCCCCC(N)=O)C(C)CC (stereo not drawn) ?
Result block: 100%

Query block: Thanks! And CCCCCC(=O)NC(Cc1ccc(OP(=O)([O-])O)cc1)C(=O)NC(C(=O)NCCCCCC(N)=O)C(C)CC.[Na+] (stereo not drawn) [Compound A30] (Hexanoyl-[pY]-Ile-[Ahx]-NH2; configuration not given here) ?
Result block: 100%

Query block: Cool, now CCCCCC(=O)NC(Cc1ccc(OP(=O)(OCCN(C)C)OCCN(C)C)cc1)C(=O)NC(C(=O)NCCCCCC(N)=O)C(C)CC (stereo not drawn)
Result block: 100%

* * *

- ASSAY NOTES: Plasma stability study, human plasma
- Type: in vitro ADME
- MEASUREMENT CONDITIONS: Human plasma, 1 μM, 37° C., 60 min
Where a SMILES comes first, the peptide text is derived from it. [ ]: non-standard residue; d: D form. The star is where a group is joined. pY = N[CH](Cc1ccc(OP(=O)(O)O)cc1)C(=O)O; Hexanoyl = CCCCCC(=O)*; Ahx = NCCCCCC(=O)O
Plasma Stability (% Parent Remaining) 60 min below 80% gives f; Plasma Stability (% Parent Remaining) 60 min at or above it gives t.

Would you please look over these solved cases?
compound="CCCCCC(=O)N1C(Cc2ccc(OP(=O)([O-])[O-])cc2)C(=O)N(C(C(=O)NCCCCCC(N)=O)C(C)CC)C12CCN(C)CC2.[Na+].[Na+] (centres unmarked)" category=t
compound="CCCCCC(=O)NC(Cc1ccc(OC(=O)NCCN(C)C)cc1)C(=O)NC(C(=O)NCCCCCC(N)=O)C(C)CC (centres unmarked)" category=f
compound="CCCCCC(=O)NC(Cc1ccc(OC(=O)N2CCN(C)CC2)cc1)C(=O)NC(C(=O)NCCCCCC(N)=O)C(C)CC (centres unmarked)" category=t
compound="CCCCCC(=O)NC(Cc1ccc(OP(=O)([O-])O)cc1)C(=O)NC(C(=O)NCCCCCC(N)=O)C(C)CC.[Na+] (centres unmarked) [Compound A30] (Hexanoyl-[pY]-Ile-[Ahx]-NH2; configuration not given here)" category=f

Query block: Is it the case that CCCCCC(=O)N[C@@H](Cc1ccc(O)cc1)C(=O)N[C@H](C(=O)NCCCCCC(N)=O)[C@@H](C)CC [Base Structure, reference compound] (Hexanoyl-Tyr-Ile-[Ahx]-NH2) has Plasma Stability (% Parent Remaining) 60 min reaching or exceeding 80%?
Result block: t

* * *

The following molecules are listed with their measured Vz/F_obs values.
- Assay type: in vivo, rat
- MEASUREMENT CONDITIONS: rat; dosed as prodrug, 10 mg/kg equivalent of Base Structure; analyte Parent (Base Structure); Combined (average ± std. dev.)

As a guide, the following entries are already answered.
molecule="CCCCCC(=O)NC(Cc1ccc(OP(=O)(OCCN(C)C)OCCN(C)C)cc1)C(=O)NC(C(=O)NCCCCCC(N)=O)C(C)CC (stereo not shown)" reported_value="6.7 ± 3.2 (mg/kg)/(ng/ml)"
molecule="CCCCCC(=O)NC(Cc1ccc(OC(=O)NCCN(C)C)cc1)C(=O)NC(C(=O)NCCCCCC(N)=O)C(C)CC (stereo not shown)" reported_value="24.7 ± 1.2 (mg/kg)/(ng/ml)"
molecule="CCCCCC(=O)N1C(Cc2ccc(OP(=O)([O-])[O-])cc2)C(=O)N(C(C(=O)NCCCCCC(N)=O)C(C)CC)C12CCN(C)CC2.[Na+].[Na+] (stereo not shown)" reported_value="6.6 ± 6.9 (mg/kg)/(ng/ml)"

Query block: Name the reported Vz/F_obs value associated with the molecule CCCCCC(=O)NC(Cc1ccc(OC(=O)N2CCN(C)CC2)cc1)C(=O)NC(C(=O)NCCCCCC(N)=O)C(C)CC (stereo not shown)
Result block: 1.543 (mg/kg)/(ng/ml)
